- Target: T1, Pif1p (nuclear isoform) (Saccharomyces cerevisiae, UniProt P07271 40-859)
- T1 sequence: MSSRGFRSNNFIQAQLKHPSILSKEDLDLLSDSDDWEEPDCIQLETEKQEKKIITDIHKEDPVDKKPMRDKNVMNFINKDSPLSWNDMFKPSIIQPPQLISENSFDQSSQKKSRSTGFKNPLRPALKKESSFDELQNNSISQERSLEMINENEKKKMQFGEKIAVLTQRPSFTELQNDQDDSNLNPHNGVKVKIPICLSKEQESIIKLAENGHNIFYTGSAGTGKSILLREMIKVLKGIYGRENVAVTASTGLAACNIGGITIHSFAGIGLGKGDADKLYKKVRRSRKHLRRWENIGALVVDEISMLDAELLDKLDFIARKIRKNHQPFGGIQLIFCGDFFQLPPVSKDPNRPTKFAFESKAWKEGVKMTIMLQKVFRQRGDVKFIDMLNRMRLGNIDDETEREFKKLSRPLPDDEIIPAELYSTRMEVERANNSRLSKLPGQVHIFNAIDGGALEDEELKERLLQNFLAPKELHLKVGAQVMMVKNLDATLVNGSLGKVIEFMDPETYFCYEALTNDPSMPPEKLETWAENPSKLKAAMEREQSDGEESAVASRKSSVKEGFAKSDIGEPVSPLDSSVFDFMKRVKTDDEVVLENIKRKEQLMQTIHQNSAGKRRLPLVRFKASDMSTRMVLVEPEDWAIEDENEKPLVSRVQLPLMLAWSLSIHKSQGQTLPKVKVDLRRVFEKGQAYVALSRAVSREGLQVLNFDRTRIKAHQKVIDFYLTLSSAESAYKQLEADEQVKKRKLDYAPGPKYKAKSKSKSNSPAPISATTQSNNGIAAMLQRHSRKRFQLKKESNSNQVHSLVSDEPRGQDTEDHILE
- Method summary: EMSA
Measurement kind: pKd
Note on units: pKd is unitless, being -log10 of a concentration expressed in mol/L.

Consider the following illustrative entries.
{"Binder": "fR20 (DNA:RNA, top strand RNA, bottom strand DNA) RNA: CGCCAUGGUGAUCCGAGUGCAAAAAAAAAA DNA: CACTGGCCGTCTTACGGTCGGCACTCGGATCACCATGGCG", "Measured result": 7.28}
{"Binder": "D20 (dsDNA) DNA 1: CGCCATGGTGATCCGAGTGC DNA 2: CACTGGCCGTCTTACGGTCGGCACTCGGATCACCATGGCG", "Measured result": 7.00}
{"Binder": "R20 (DNA:RNA, top strand RNA, bottom strand DNA) RNA: CGCCAUGGUGAUCCGAGUGC DNA: CACTGGCCGTCTTACGGTCGGCACTCGGATCACCATGGCG", "Measured result": 7.77}

Input: Which pKd value is on record for fD20 (dsDNA) DNA 1: CGCCATGGTGATCCGAGTGCAAAAAAAAAA DNA 2: CACTGGCCGTCTTACGGTCGGCACTCGGATCACCATGGCG ?
Output: 6.89

These data points were gathered from paper PMC2034482.
